- Test system: MDA-MB-468 breast
- protocol_text: NCI tumour cell line growth inhibition, 48 h
Please use Condition met whenever TGI is not below 3 µM, and Condition not met whenever it is.

- compound: "CCN(CC)CCCC(Nc1c2ccc(Cl)cc2nc2ccc(OC)cc12)c1ccc(F)cc1 (stereo not drawn)"
  category: "Condition met"
- compound: "COc1ccc(/C=C/c2cc(N3CCOCC3)c3cc(F)c(F)cc3n2)cc1OC"
  category: "Condition not met"
- compound: "CC(=O)OC[C@]12CC[C@@H]([C@@H](C)C(N)=O)[C@@H]1[C@H]1CC[C@@H]3[C@@]4(C)CC[C@H](OC(C)=O)C(C)(C)[C@@H]4CC[C@@]3(C)[C@]1(C)CC2"
  category: "Condition met"
- compound: "O=C1/C(=C\\c2coc3ccccc3c2=O)c2ccccc2N1c1c(Cl)cccc1Cl"
  category: "Condition met"
- compound: "N#Cc1c(NC(=O)CN2CCOCC2)sc2c1CCCC2"
  category: "Condition met"
- compound: "CCOc1ccc(/C=C/[N+](=O)[O-])cc1"
  category: "Condition met"
- compound: "Cc1ccc(Cl)cc1NC(=O)Nc1nc2ccc([N+](=O)[O-])cc2s1"
  category: "Condition met"
- compound: "COc1cc([C@@H]2c3cc4c(cc3[C@@H](O[C@@H]3O[C@@H]5CO[C@@H](c6cccs6)O[C@H]5[C@H](O)[C@H]3O)[C@H]3COC(=O)[C@H]23)OCO4)cc(OC)c1O"
  category: "Condition not met"
